Target: T1, human CD81 mutant V169L (human, UniProt P60033 1-236, limits assumed)
T1 construct: as m30; not shown: C-terminal V5 and 6xHis tags
T1 sequence: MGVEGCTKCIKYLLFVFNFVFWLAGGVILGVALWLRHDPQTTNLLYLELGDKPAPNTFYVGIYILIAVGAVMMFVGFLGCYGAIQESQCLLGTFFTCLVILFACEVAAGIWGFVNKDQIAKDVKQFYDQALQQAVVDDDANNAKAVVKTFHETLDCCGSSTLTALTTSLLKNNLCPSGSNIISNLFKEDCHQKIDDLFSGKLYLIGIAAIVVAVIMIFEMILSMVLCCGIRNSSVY
Assay: ELISA
measure: relative binding affinity

binder: 002-A07 N113Q (antibody, human IgG4 S228P, lambda, V domains shown, IgG4 S228P; glycosylation site mutant of 002-A07 VL) VH: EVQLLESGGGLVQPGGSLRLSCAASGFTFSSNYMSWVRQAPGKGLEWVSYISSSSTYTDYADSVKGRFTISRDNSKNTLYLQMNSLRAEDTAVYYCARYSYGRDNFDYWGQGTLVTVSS VL: QSVLTQPPSASGTPGQRVTISCTGSTSNIGAGYDTHWYQQLPGTAPKLLIYGNSNRPSGVPDRFSGSKSGTSASLAISGLRSEDEADYYCQSYDTQLSVWVFGGGTKLTVLG
relative binding affinity: < 20%

Attention now turns to another entry.
002-D10 (antibody, human IgG4 S228P, lambda, V domains shown, IgG4 S228P) VH: EVQLLESGGGLVQPGGSLRLSCAASGFTFSSNYMSWVRQAPGKGPEWVSYISSSSTYTDYADSVKGRFTISRDNSKNTLYLQMNSLRAEDTAVYYCARYSYGRDNFDYWGQGTLVTVSS VL: QSVLTQPSSASGTPGQRVTISCTGSTSNIGAGYDTHWYQQLPGTAPKLLIYGNSNRPSGVPDRFSGSKSGTSASLAVSGLRSEDEAEYYCQSYDTNLSGWVFGGGTKLTVLG has a reported relative binding affinity of < 20%
